meta.source: patent US11976083B2

Target: human PAD4 (Homo sapiens)
Construct: human PAD4 (NM_012387), A2-P663, was PCR amplified; His-SUMO (N, cleaved yes)
Assay: In vitro PAD4 BAEE biochemical assay
Conditions: BAEE substrate 3 mM, 5 nM PAD4, 2 mM calcium chloride; geometric mean of multiple experiments
Description: In Vitro PAD4 BAEE Biochemical Assay The enzymatic activity of human PAD4 was monitored in a biochemical assay in the presence or absence of compounds using the small peptidyl arginine mimic BAEE (Na-Benzoyl-L-arginine ethyl ester hydrochloride) as substrate. PAD4 activity led to deimination of BAEE and release of ammonia. Levels of ammonia were monitored by using an amine coupling reaction and were indicative of PAD4 enzymatic activity. […]
valueType: IC50 (µM)

>  <compound>
C[C@H]1NC(=O)c2ccc(Cl)nc2CCCCCn2c(-c3nc4cc(C(=O)N5C[C@H](N)[C@@H]6CC[C@H]5C6)cc(F)c4n3C3CC3)cc3cc(F)c1nc32 [Example 895]

>  <testResult>
0.034

$$$$
>  <compound>
COc1cc(C(=O)N2CC[C@@H](OC)[C@@H](N)C2)cc2nc(-c3cc4ccc5nc4n3C[C@H]3C[C@H]3CCC[C@](C)(C(F)(F)F)C(=O)N[C@@H]5C)n(C)c12 [Example 370]

>  <testResult>
0.163

$$$$
>  <compound>
COc1cc(C(=O)N2C[C@H]3CC[C@@H]2[C@@H]3N)cc2nc(-c3cc4ccc5nc4n3CCCCCc3ccccc3C(=O)N[C@@H]5C)n(C)c12 [Example 42]

>  <testResult>
0.108

$$$$
>  <compound>
COc1cc(C(=O)N2CC[C@@H](OCC(F)F)[C@@H](N)C2)cc2nc(-c3cc4ccc5nc4n3CCCCC[C@@H]3C[C@H]3C(=O)N[C@@H]5C)n(C)c12 [Example 489]

>  <testResult>
0.078

$$$$
>  <compound>
COc1cc(C(=O)N2C[C@H](N)[C@@H]3CC[C@H]2C3)cc2nc(-c3cc4ccc5nc4n3CCCCCc3nc(C(F)F)ccc3C(=O)N[C@@H]5C)n(C3CC3)c12 [Example 819]

>  <testResult>
0.01

$$$$

* * *

target: human PAD4 (Homo sapiens, UniProt Q9UM07); construct: human PAD4 (NM_012387), A2-P663, was PCR amplified; His-SUMO (N, cleaved yes); test: In vitro PAD4 BAEE biochemical assay; conditions: BAEE substrate 3 mM, 5 nM PAD4, 2 mM calcium chloride; geometric mean of multiple experiments
Sequence (Q9UM07 2-663): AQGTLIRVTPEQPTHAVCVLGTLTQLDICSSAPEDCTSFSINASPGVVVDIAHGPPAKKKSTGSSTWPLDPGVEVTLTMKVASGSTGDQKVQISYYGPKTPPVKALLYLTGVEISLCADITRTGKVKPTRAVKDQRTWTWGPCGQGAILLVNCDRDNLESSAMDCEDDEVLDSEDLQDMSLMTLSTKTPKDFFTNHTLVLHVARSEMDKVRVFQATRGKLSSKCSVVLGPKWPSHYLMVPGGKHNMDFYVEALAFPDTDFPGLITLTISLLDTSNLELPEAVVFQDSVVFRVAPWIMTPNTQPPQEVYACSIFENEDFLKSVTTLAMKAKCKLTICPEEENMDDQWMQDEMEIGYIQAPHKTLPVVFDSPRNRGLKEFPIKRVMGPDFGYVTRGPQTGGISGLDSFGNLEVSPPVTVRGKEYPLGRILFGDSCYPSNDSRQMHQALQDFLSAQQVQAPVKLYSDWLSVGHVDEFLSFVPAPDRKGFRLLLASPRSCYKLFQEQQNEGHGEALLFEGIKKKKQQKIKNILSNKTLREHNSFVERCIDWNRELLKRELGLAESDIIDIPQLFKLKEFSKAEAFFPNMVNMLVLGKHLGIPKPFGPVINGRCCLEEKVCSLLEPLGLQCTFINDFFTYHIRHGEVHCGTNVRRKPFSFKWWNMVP
pIC50: −log10 of the molar value.
valueType: pIC50

>  <molecule>
C[C@H]1NC(=O)C(C)(C)CCCCCCn2c(-c3nc4cc(C(=O)N5[C@H]6CC[C@@H]5[C@H](N)C6)c(F)cc4n3C3CC3)cc3ccc1nc32

>  <testResult>
7.19

$$$$
>  <molecule>
C[C@@H]1[C@H](N)CCCN1C(=O)c1cc(F)c2c(c1)nc(-c1cc3ccc4nc3n1CC(F)(F)CCC[C@]1(F)C[C@H]1C(=O)N[C@@H]4C)n2C1CC1

>  <testResult>
8.30

$$$$
>  <molecule>
C[C@H]1NC(=O)[C@]2(C)C[C@H]2CCCC(F)(F)Cn2c(-c3nc4cc(C(=O)N[C@H]5CNCC[C@@H]5F)c(F)cc4n3C)cc3ccc1nc32

>  <testResult>
7.33

$$$$
>  <molecule>
COc1cc(C(=O)N2CCC[C@@H](N)C2)cc2nc(-c3cc4ccc5nc4n3CCC/C=C/C[C@](C)(C(F)(F)F)C(=O)N[C@@H]5C)n(C)c12 (single isomer, unassigned)

>  <testResult>
6.96

$$$$
>  <molecule>
C[C@H]1NC(=O)[C@H]2[C@H](CCCC(F)(F)Cn3c(-c4nc5cc(C(=O)N[C@H]6CNCC[C@@H]6F)c(F)cc5n4C)cc4ccc1nc43)C2(F)F

>  <testResult>
7.39

$$$$
>  <molecule>
C[C@H]1NC(=O)[C@@H]2C[C@H]2CCCCCn2c(-c3nc4cc(C(=O)N5[C@H]6CC[C@@H]5[C@H](N)C6)c(F)cc4n3C3CC3)cc3ccc1nc32

>  <testResult>
7.51

$$$$
>  <molecule>
COc1cc(C(=O)N2C[C@H](N)[C@@H]3CC[C@H]2C3)cc2nc(-c3cc4ccc5nc4n3CCCCC[C@]3(F)C[C@H]3C(=O)N[C@@H]5C)n(C)c12

>  <testResult>
7.72

$$$$
>  <molecule>
COc1cc(C(=O)N2CCC[C@@H](N)C2)cc2nc(-c3cc4ccc5nc4n3CCCCOCCC(=O)N3CCC[C@H]53)n(C)c12

>  <testResult>
6.82

$$$$
>  <molecule>
COc1cc(C(=O)N2CC[C@@H](OC)[C@@H](N)C2)cc2nc(-c3cc4ccc5nc4n3CCCCCc3cc4ccccc4nc3C(=O)N(C)[C@@H]5C)n(C)c12

>  <testResult>
6.84

$$$$
>  <molecule>
COc1cc(C(=O)N2C[C@H](N)[C@@H]3CC[C@H]2C3)cc2nc(-c3cc4ccc5nc4n3CCCCC[C@]3(F)C[C@H]3C(=O)NC5(C)C)n(C)c12

>  <testResult>
7.57

$$$$
>  <molecule>
C[C@H]1NC(=O)[C@@H]2C[C@H]2CCCCCn2c(-c3nc4cc(C(=O)N[C@H]5CNCC[C@@H]5F)c(F)cc4n3[C@@H]3C[C@H]3C(F)F)cc3ccc1nc32

>  <testResult>
7.28

$$$$
>  <molecule>
C[C@H]1NC(=O)c2ccc(Cl)nc2CCCCCn2c(-c3nc4cc(C(=O)N5C[C@H](N)[C@@H]6CC[C@H]5C6)cc(F)c4n3CC3CC3)cc3ccc1nc32

>  <testResult>
7.52

$$$$
>  <molecule>
COc1cc(C(=O)N2C[C@H](N)[C@@H]3CC[C@H]2C3)cc2nc(-c3cc4ccc5nc4n3CCCCC[C@@H]3C[C@@]3(F)C(=O)N[C@@H]5C)n(C)c12

>  <testResult>
7.43

$$$$
>  <molecule>
COc1cc(C(=O)N2C[C@H](N)[C@@H]3CC[C@H]2C3)cc2nc(-c3cc4ccc5nc4n3CCCCC[C@]3(F)C[C@@]3(C)C(=O)N[C@@H]5C)n(C)c12

>  <testResult>
7.59

$$$$
>  <molecule>
C[C@H]1NC(=O)[C@@H]2C[C@@]2(F)/C=C/CCCn2c(-c3nc4cc(C(=O)N5C[C@H](N)[C@@H]6CC[C@H]5C6)cc(F)c4n3C3CC3)cc3ccc1nc32

>  <testResult>
7.70

$$$$
>  <molecule>
COc1cc(C(=O)N[C@@H]2CCCNC2)cc2nc(-c3cc4ccc5nc4n3CCCCCCC(C)(C)C(=O)N[C@@H]5C)n(C)c12

>  <testResult>
6.86

$$$$
>  <molecule>
COc1cc(C(=O)N2CCC[C@@H](N)C2)cc2nc(-c3cc4ccc5nc4n3CCCCCOCC(C)(C)C(=O)N[C@@H]5C)n(C)c12

>  <testResult>
7.13

$$$$
>  <molecule>
[2H]C1([2H])[C@H](N)[C@@H]2CC[C@@H](C2)N1C(=O)c1cc(OC)c2c(c1)nc(-c1cc3ccc4nc3n1CC(F)(F)CCC[C@@H]1C[C@H]1C(=O)N[C@@H]4C)n2C

>  <testResult>
7.80

$$$$
>  <molecule>
COc1cc(C(=O)N2[C@H]3CC[C@@H]2[C@H](N)C3)cc2nc(-c3cc4ccc5cc4n3CCCCCC[C@](C)(OC)C(=O)N[C@@H]5C)n(C)c12

>  <testResult>
7.41

$$$$
>  <molecule>
C[C@H]1NC(=O)[C@@H]2C[C@H]2CC[C@@H]2[C@H](Cn3c(-c4nc5cc(C(=O)N[C@H]6CNCC[C@@H]6F)c(F)cc5n4C)cc4ccc1nc43)C2(F)F

>  <testResult>
7.62

$$$$
>  <molecule>
COc1cc(C(=O)N2C[C@H](N)[C@@H]3CC[C@H]2C3)cc2nc(-c3cc4ccc5nc4n3CCCCCC[C@@H](c3ccccn3)C(=O)N[C@@H]5C)n(C)c12

>  <testResult>
7.89

$$$$
>  <molecule>
COCCn1c(-c2cc3ccc4nc3n2CCCCCc2nccnc2C(=O)N[C@@H]4C)nc2cc(C(=O)N3CC[C@@H](OC)[C@@H](N)C3)cc(F)c21

>  <testResult>
6.40

$$$$

* * *

molecular target: human PAD4 (Homo sapiens, UniProt Q9UM07); construct: human PAD4 (NM_012387), A2-P663, was PCR amplified; His-SUMO (N, cleaved yes); test: In vitro PAD4 BAEE biochemical assay; settings: BAEE substrate 3 mM, 5 nM PAD4, 2 mM calcium chloride; geometric mean of multiple experiments
pIC50: −log10 of the molar value.
// values below are reported pIC50

>  <compound>
CCCO[C@@H]1CCN(C(=O)c2cc(OC)c3c(c2)nc(-c2cc4ccc5nc4n2CCCCCCC(C)(C)C(=O)N[C@@H]5C)n3C)C[C@@H]1N

>  <pIC50>
6.78

$$$$
>  <compound>
COc1cc(C(=O)N2C[C@H]3C[C@H]3[C@H](N)C2)cc2nc(-c3cc4ccc5nc4n3CCCCCCC(C)(C)C(=O)N[C@@H]5C)n(C)c12

>  <pIC50>
6.39

$$$$
>  <compound>
COc1cc(C(=O)N2C[C@H](N)[C@@H]3CC[C@H]2C3)cc2nc(-c3cc4ccc5nc4n3CCCC[C@]3(F)C[C@H]3C(=O)N3CCC[C@H]53)n(C)c12

>  <pIC50>
7.09

$$$$
>  <compound>
COc1cc(C(=O)N[C@H](C)CN)cc2nc(-c3cc4ccc5nc4n3CCCCC[C@@H]3CC3C(=O)N[C@@H]5C)n(C)c12 (stereo partly drawn)

>  <pIC50>
6.84

$$$$
>  <compound>
COc1cc(C(=O)N2CC[C@H]3CCCN[C@H]3C2)cc2nc(-c3cc4ccc5nc4n3CCCCCCC3(CC3)C(=O)N[C@@H]5C)n(C)c12

>  <pIC50>
6.34

$$$$
>  <compound>
COc1cc(C(=O)N2[C@H]3CC[C@@H]2[C@H](N)C3)cc2nc(-c3cc4ccc5nc4n3CCCCCCCC3(CCC3)C(=O)N[C@@H]5C)n(C)c12

>  <pIC50>
7.19

$$$$
